# Epidermal growth factor receptor (Homo sapiens): pIC50 values follow;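 note: human A431 cells pretreated 90 min, then EGF stimulated, sandwich ELISA measured decrease in EGF-induced receptor autophosphorylation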
# Sequence (P00533 whole entry): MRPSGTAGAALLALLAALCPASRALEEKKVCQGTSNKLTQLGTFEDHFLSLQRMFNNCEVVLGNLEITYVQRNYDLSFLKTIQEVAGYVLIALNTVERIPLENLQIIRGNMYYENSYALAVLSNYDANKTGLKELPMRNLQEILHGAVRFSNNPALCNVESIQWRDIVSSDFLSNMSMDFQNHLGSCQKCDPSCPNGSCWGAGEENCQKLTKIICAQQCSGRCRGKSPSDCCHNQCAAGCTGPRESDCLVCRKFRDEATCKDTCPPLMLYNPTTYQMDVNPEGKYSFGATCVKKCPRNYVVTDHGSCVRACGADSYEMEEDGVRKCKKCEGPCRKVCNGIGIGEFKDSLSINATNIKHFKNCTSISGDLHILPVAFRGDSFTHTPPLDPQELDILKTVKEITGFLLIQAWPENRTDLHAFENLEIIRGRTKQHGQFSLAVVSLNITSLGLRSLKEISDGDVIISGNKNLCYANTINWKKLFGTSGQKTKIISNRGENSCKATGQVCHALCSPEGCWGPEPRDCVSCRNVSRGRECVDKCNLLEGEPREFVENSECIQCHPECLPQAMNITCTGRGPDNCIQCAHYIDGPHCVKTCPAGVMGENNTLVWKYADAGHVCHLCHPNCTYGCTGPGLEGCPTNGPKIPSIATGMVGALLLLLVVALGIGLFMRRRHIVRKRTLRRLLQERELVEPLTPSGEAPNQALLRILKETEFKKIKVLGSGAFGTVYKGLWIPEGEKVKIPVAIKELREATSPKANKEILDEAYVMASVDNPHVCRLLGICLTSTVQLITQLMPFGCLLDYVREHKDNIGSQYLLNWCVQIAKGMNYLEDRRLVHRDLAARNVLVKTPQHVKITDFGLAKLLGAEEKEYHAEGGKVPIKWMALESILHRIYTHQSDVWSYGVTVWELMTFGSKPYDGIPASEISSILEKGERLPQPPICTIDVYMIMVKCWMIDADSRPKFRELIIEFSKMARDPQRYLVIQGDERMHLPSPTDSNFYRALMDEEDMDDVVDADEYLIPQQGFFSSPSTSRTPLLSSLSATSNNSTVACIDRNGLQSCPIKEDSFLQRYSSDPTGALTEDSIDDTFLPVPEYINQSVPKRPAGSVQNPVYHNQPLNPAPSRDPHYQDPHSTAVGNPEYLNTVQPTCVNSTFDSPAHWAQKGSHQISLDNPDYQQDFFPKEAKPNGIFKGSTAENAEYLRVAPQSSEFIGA
A value of pIC50 is the negative decimal logarithm of a concentration given in moles per litre.

Recorded results for 3 compounds are shown here.
IN: Answer briefly: pIC50 recorded on Epidermal growth factor receptor (Homo sapiens) for C#Cc1cccc(Nc2c(C#N)cnc3cc(OC)c(OC)cc23)c1
OUT: 7.21

IN: Answer briefly: pIC50 recorded on Epidermal growth factor receptor (Homo sapiens) for COc1cc2ncc(C#N)c(Nc3cc(OC)c(OC)c(OC)c3)c2cc1OC
OUT: 5.15

IN: Answer briefly: pIC50 recorded on Epidermal growth factor receptor (Homo sapiens) for C#Cc1cccc(Nc2ccnc3cc(OCCOC)c(OCCOC)cc23)c1
OUT: 6.47

Would you kindly look at the next entry?
IN: Answer briefly: pIC50 recorded on Epidermal growth factor receptor (Homo sapiens) for COc1cc2nccc(Nc3cc(OC)c(OC)c(OC)c3)c2cc1OC
OUT: 4.57
